Tested on: crabgrass (Digitaria sanguinalis)
Assay: Test B pre-/postemergence
Format: in vivo
Conditions: Rate 62 g/ha, Postemergence

{"columns": ["Smiles code", "System tested", "Plant response rating, Crabgrass"],
 "data": [
  ["Cc1cnc(-c2cccc(C(F)(F)F)c2)nc1Cc1cccc(C(F)(F)F)c1", "crabgrass (Digitaria sanguinalis)", 8],
  ["CCc1cnc(-n2cnc(C(F)(F)F)c2)nc1Cc1cccc(OC(F)(F)F)c1", "crabgrass (Digitaria sanguinalis)", 5],
  ["CCc1cnc(-c2ccc(C(F)(F)F)cc2)nc1Cc1cccc(OC(F)(F)F)c1", "crabgrass (Digitaria sanguinalis)", 7],
  ["Cc1cnc(-c2ccc(C(F)(F)F)cc2)nc1Cn1cnc(C(F)(F)F)c1", "crabgrass (Digitaria sanguinalis)", 2],
  ["Cc1cnc(-c2ccc(C(F)(F)F)cc2)nc1Cn1cc(I)cn1", "crabgrass (Digitaria sanguinalis)", 2]
]}

====

Test system: sugar beet (Beta vulgaris)
Assay: Test B pre-/postemergence
Format: in vivo
Settings: Rate 125 g/ha, Preemergence
Method: […] At the same time, these crop and weed species were also treated with postemergence applications of test chemicals formulated in the same manner. […] Treated plants and controls were maintained in a greenhouse for twelve to sixteen days, after which all species were compared to controls and visually evaluated. […]
A collection of molecules and their measured Plant response rating, Sugarbeets

{"columns": ["Smiles code", "Plant response rating, Sugarbeets"],
 "data": [
  ["Cc1cnc(-c2ccc(C(F)(F)F)cc2)nc1C(=O)c1cccc(C(F)(F)F)c1", 9],
  ["Cc1cnc(-c2ccc(C(F)(F)F)cc2)nc1Cn1ccc(C#N)n1", 8],
  ["CCc1cnc(-n2ccc(C(F)(F)F)n2)nc1Cc1cccc(C(F)(F)F)c1", 10],
  ["Cc1cnc(-n2cnc(C(F)(F)F)c2)nc1Cc1cccc(C(F)(F)F)c1", 10],
  ["Cc1cnc(-n2cnc(C(F)(F)F)n2)nc1C(=O)c1cccc(OC(F)(F)F)c1", 10],
  ["CCc1cnc(-n2ccc(C(F)(F)F)n2)nc1Cc1cccc(OC(F)(F)F)c1", 7],
  ["CCc1cnc(-n2cnc(C(F)(F)F)c2)nc1C(=O)c1cccc(OC(F)(F)F)c1", 3],
  ["Cc1cnc(-c2ccc(Cl)c(Cl)c2)nc1Cc1cccc(C(F)(F)F)c1", 1]
]}

====

Test system: momingglory (Ipomoea hederacea)
Assay: Test B pre-/postemergence
Type: in vivo
Set-up: key: 0 is no effect; 10 is complete control
Details: Rate 250 g/ha, Postemergence (so in the source)

{"columns": ["Compound", "Plant response rating, Morningglory"],
 "data": [
  ["Cc1cnc(-c2cccc(C(F)(F)F)c2)nc1Cc1cccc(C#N)c1 [Compound 39]", 0],
  ["CCc1cnc(-n2ccc(C(F)(F)F)n2)nc1Cc1cccc(C(F)(F)F)c1 [Compound 46]", 10],
  ["Cc1cnc(-c2ccccc2F)nc1Cc1cccc(C(F)(F)F)c1 [Compound 26]", 0],
  ["Cc1cnc(-c2ccc(Cl)cc2F)nc1Cc1cccc(C#N)c1 [Compound 35]", 0],
  ["Cc1cnc(-c2ccc(Cl)c(Cl)c2)nc1Cc1cccc(C(F)(F)F)c1 [Compound 27]", 2],
  ["Cc1cnc(-c2ccc(Cl)c(Cl)c2)nc1Cc1cccc(C#N)c1 [Compound 38]", 0],
  ["Cc1cnc(-n2ccc(C(F)(F)F)n2)nc1Cc1cccc(OC(F)(F)F)c1 [Compound 42]", 10],
  ["Cc1cnc(-c2ccc(F)cc2F)nc1Cc1cccc(C(F)(F)F)c1 [Compound 31]", 2]
]}

====

Test system: pigweed (Amaranthus retroflexus)
Assay: Test B pre-/postemergence
Assay type: in vivo
Design: key: 0 is no effect; 10 is complete control
Settings: Rate 250 g/ha, Postemergence (so in the source)
A collection of compounds and their measured Plant response rating, Redroot pigweed
Test readout: Plant response rating, Redroot pigweed

{"columns": ["Smiles code", "Test value"],
 "data": [
  ["Cc1cnc(-n2ccc(C(F)(F)F)n2)nc1Cc1cccc(OC(F)(F)F)c1", 10],
  ["Cc1cnc(-c2ccc(F)cc2F)nc1Cc1cccc(C(F)(F)F)c1", 3],
  ["Cc1cnc(-c2ccc(Cl)cc2)nc1Cc1cccc(C#N)c1", 2],
  ["Cc1cnc(-c2ccc(C(F)(F)F)cc2)nc1Cc1cccc(C#N)c1", 10],
  ["Cc1cnc(-c2ccc(C#N)cc2)nc1Cc1cccc(C(F)(F)F)c1", 10],
  ["CCc1cnc(-n2ccc(C(F)(F)F)n2)nc1Cc1cccc(C(F)(F)F)c1", 10],
  ["CCc1cnc(-c2ccc(C(F)(F)F)cc2)nc1Cc1cccc(OC(F)(F)F)c1", 10],
  ["Cc1cnc(-c2ccccc2F)nc1Cc1cccc(C(F)(F)F)c1", 4],
  ["Cc1cnc(-c2ccc(Cl)cc2F)nc1Cc1cccc(C(F)(F)F)c1", 3],
  ["Cc1cnc(-c2cccc(C(F)(F)F)c2)nc1Cc1cccc(C#N)c1", 0]
]}

====

A collection of molecules and their measured Redroot pigweed plant response rating
Test system: pigweed (Amaranthus retroflexus)
Assay: Test B pre-/postemergence
Type: in vivo
Parameters: key: 0 is no effect; 10 is complete control
Settings: Rate 62 g/ha, Preemergence
Test readout: Redroot pigweed plant response rating

{"columns": ["Molecule", "Test readout", "Test value"],
 "data": [
  ["Cc1cnc(-c2ccc(Cl)cc2F)nc1Cc1cccc(C#N)c1", "Redroot pigweed plant response rating", 0],
  ["Cc1cnc(-c2ccc(C(F)(F)F)cc2)nc1Cn1nc(C(F)(F)F)cc1C", "Redroot pigweed plant response rating", 7],
  ["Cc1cnc(-c2ccc(C(F)(F)F)cc2)nc1C(C)c1cccc(C(F)(F)F)c1 (racemic)", "Redroot pigweed plant response rating", 0],
  ["Cc1cnc(-c2ccc(C(F)(F)F)cc2)nc1Cn1cnc(C(F)(F)F)n1", "Redroot pigweed plant response rating", 9],
  ["CCc1cnc(-n2cnc(C(F)(F)F)n2)nc1Cc1cccc(OC(F)(F)F)c1", "Redroot pigweed plant response rating", 7],
  ["Cc1cnc(-c2ccc(C(F)(F)F)cc2)nc1Cn1ccc(C(F)(F)F)n1", "Redroot pigweed plant response rating", 9],
  ["Cc1cnc(-c2ccc(C#N)cc2)nc1Cc1cccc(C#N)c1", "Redroot pigweed plant response rating", 0],
  ["Cc1cnc(-c2ccc(C(F)(F)F)cc2)nc1Cc1cccc(C#N)c1", "Redroot pigweed plant response rating", 8],
  ["Cc1cnc(-c2ccc(C(F)(F)F)cc2)nc1Cn1cnc(C(F)(F)F)c1", "Redroot pigweed plant response rating", 3],
  ["Cc1cnc(-c2ccc(C(F)(F)F)cc2)nc1Cc1cccc(OC(F)(F)F)c1", "Redroot pigweed plant response rating", 6],
  ["COC(=O)C(c1cccc(C(F)(F)F)c1)c1nc(-c2ccc(C(F)(F)F)cc2)ncc1C (racemic)", "Redroot pigweed plant response rating", 0],
  ["Cc1cnc(-n2cnc(C(F)(F)F)n2)nc1Cc1cccc(C(F)(F)F)c1", "Redroot pigweed plant response rating", 10],
  ["Cc1cnc(-c2ccc(C#N)cc2)nc1Cc1cccc(C(F)(F)F)c1", "Redroot pigweed plant response rating", 2],
  ["Cc1cnc(-c2cccc(C(F)(F)F)c2)nc1Cc1cccc(C(F)(F)F)c1", "Redroot pigweed plant response rating", 0],
  ["Cc1cnc(-c2ccc(F)c(Cl)c2)nc1Cc1cccc(C(F)(F)F)c1", "Redroot pigweed plant response rating", 1],
  ["Cc1cnc(-c2ccc(F)cc2F)nc1Cc1cccc(C#N)c1", "Redroot pigweed plant response rating", 0],
  ["Cc1cnc(-c2ccccc2F)nc1Cc1cccc(C(F)(F)F)c1", "Redroot pigweed plant response rating", 0]
]}

====

A collection of compounds and their measured Plant response rating, I. Ryegrass
System: Italian ryegrass (Lolium multiflorum)
Experiment: Test D
Type: in vivo
Settings: PREEMERGENCE, Rate 62 g/ha

{"columns": ["Smiles code", "System tested", "Plant response rating, I. Ryegrass"],
 "data": [
  ["CCc1cnc(-n2ccc(C(F)(F)F)n2)nc1Cc1cccc(C(F)(F)F)c1", "Italian ryegrass (Lolium multiflorum)", 60],
  ["Cc1cnc(-n2cnc(C(F)(F)F)n2)nc1Cn1ccc(C(F)(F)F)n1", "Italian ryegrass (Lolium multiflorum)", 90],
  ["Cc1cnc(-n2ccc(C(F)(F)F)n2)nc1Cn1ccc(C(F)(F)F)n1", "Italian ryegrass (Lolium multiflorum)", 70],
  ["Cc1cnc(-c2ccc(C(F)(F)F)cc2)nc1Cc1cccc(C(F)(F)F)c1", "Italian ryegrass (Lolium multiflorum)", 40]
]}

====

Tested on: giant foxtail (Setaria faberii)
Assay: Test B pre-/postemergence
Format: in vivo
Details: Rate 500 g/ha, Postemergence
A collection of molecules and their measured Plant response rating, Giant foxtail
Test readout: Plant response rating, Giant foxtail

{"columns": ["Smiles code", "Test value"],
 "data": [
  ["Cc1cnc(-n2cnc(C(F)(F)F)n2)nc1C(=O)c1cccc(C(F)(F)F)c1", 9],
  ["Cc1cnc(-c2ccc(C(F)(F)F)cc2)nc1Cn1ccc(C#N)n1", 2],
  ["Cc1cnc(-c2ccccc2)nc1Cn1ccc(C(F)(F)F)n1", 1],
  ["Cc1cnc(-c2ccc(C(F)(F)F)cc2)nc1C(=O)c1ccc(C(F)(F)F)cc1", 1],
  ["Cc1cnc(-c2ccc(C(F)(F)F)cc2)nc1Cn1cc(Br)cn1", 4]
]}
